Reported values of max response for individual entries
tested on: HaCat; assay: Cytotoxic Profiling of Annotated Libraries Using Quantitative High-Throughput Screening (AID 1296008); conditions: Five cell lines viability, CellTiter-Glo ATP luminescence, 48-72 h; stronger effect = lower value; note: % is set by controls: 0 for no effect and ±100 for the full control effect
Results filed as inconclusive are left out.
Expressed in %, but write only the number.

max response for COC1C(CO)OC(n2cnc3c(=O)[nH]cnc32)C1O (configuration not stated) ? -1.42

Could you do the same for Cn1nc(C(C)(C)C)cc1C(=O)NC(Cc1cccc(Cl)c1)C(=O)NCC#N (configuration not stated) , please? -59.1

Could you do the same for C=CC1(C)C=C2CCC3C(C)(C)C(O[C@@H]4O[C@@H](CO)[C@H](O)[C@H]4O)CCC3(C)C2CC1O[C@@H]1O[C@H](C)[C@H](O)[C@H](O)[C@H]1O (some centres not stated) , please? 4.85

Could you do the same for C=CC[C@]12C[C@@H](OC)C(=O)C(OC)=C1O[C@@H](c1cc(OC)c3c(c1)OCO3)[C@@H]2C , please? -13.8

Could you do the same for OC[C@@]1(O)CO[C@@H](OC[C@H]2O[C@@H](Oc3c[nH]c4ccccc34)[C@H](O)[C@@H](O)[C@@H]2O)[C@@H]1O , please? -26.1

Could you do the same for CC1=C(C(=O)OCc2ccccc2)C(c2ccc(-c3ccccc3)cc2)NC(=O)N1CCCCCC(=O)O (configuration not stated) , please? -18.2

Could you do the same for O=C(CC(c1ccccc1)c1ccccc1)N1CCN(C(c2ccccc2)c2ccccc2)CC1 , please? -29
